Data provenance: patent US11464770B2

Form field: pIC50 (one value per entry).
test system: cervical carcinoma cell lines; assay: Cell based assay, cell viability (CellTiter-Glo), cervical carcinoma cell lines; conditions: Homo sapiens; HeLa cells
pIC50: −log10 of the molar value.

Return value of pIC50 for input CC(=O)c1c(SCc2ccccc2)n(C(=O)c2ccc(Br)cc2)c2c(Br)ccc(Cl)c2c1=O [Compound 23] , no commentary.
< 5.00

Return value of pIC50 for input CC(=O)c1c([S+]([O-])Cc2ccccc2)nc2c(Br)ccc(Cl)c2c1O (centres unmarked) [Compound 53] , no commentary.
< 5.00

Return value of pIC50 for input CC(=O)c1c(SCc2cccc(F)c2)[nH]c2c(Br)ccc(Cl)c2c1=O [Compound 49] , no commentary.
< 5.00

Return value of pIC50 for input CC(=O)c1c(S/C=C\C(=O)O)[nH]c2c(Br)ccc(Cl)c2c1=O [Compound 67] , no commentary.
< 5.00

Return value of pIC50 for input COC(=O)c1ccc(C[S+]([O-])c2[nH]c3c(Cl)ccc(Cl)c3c(=O)c2C(C)=O)o1 (centres unmarked) [Compound 89] , no commentary.
< 5.00

Return value of pIC50 for input CC(=O)c1c([S+](C)[O-])[nH]c2c(Cl)ccc(Cl)c2c1=O (centres unmarked) [Compound 6] , no commentary.
< 5.00

Return value of pIC50 for input CC(=O)c1c([S+]([O-])Cc2ccc(C(F)(F)F)nc2C)[nH]c2c(Br)ccc(Cl)c2c1=O (centres unmarked) [Compound 102] , no commentary.
< 5.70

Return value of pIC50 for input CC(=O)c1c(S(C)(=O)=O)n(S(=O)(=O)c2ccc(C(C)(C)C)cc2)c2c(Br)ccc(Cl)c2c1=O [Compound 41] , no commentary.
< 5.00

Now consider a different compound.
Return value of pIC50 for input Cc1cc(C[S+]([O-])c2[nH]c3c(Cl)ccc(Cl)c3c(=O)c2C(=O)C2CC2)no1 (centres unmarked) [Compound 97] , no commentary.
< 5.70

====

test system: blood cancer cell lines (e.g. HL-60, Jurkat, Raji, Ramos, Daudi, MOLT-4); assay: Cell based assay, cell viability (CellTiter-Glo), blood cancer cell lines; conditions: Homo sapiens, blood cancer cell line Ramos (RA 1), 72 hours, read-out: IC50, Ramos (RA 1)
reported.property: IC50

As a guide, the following entries are already answered.
Return value of IC50 for input O=C(c1ccccc1)c1c([S+]([O-])Cc2ccc(S(F)(F)(F)(F)F)cc2)[nH]c2c(F)ccc(F)c2c1=O (stereo not shown) [Compound 87] , no commentary.
> 2000 nM

Return value of IC50 for input Cc1cc(C[S+]([O-])c2[nH]c3c(Cl)ccc(Cl)c3c(=O)c2C(=O)c2ccccc2)no1 (stereo not shown) [Compound 88] , no commentary.
> 2000 nM

Return value of IC50 for input CC(=O)c1c(SC(C)C)[nH]c2c(Br)ccc(Cl)c2c1=O [Compound 24] , no commentary.
> 2000 nM

Return value of IC50 for input CC(=O)c1c([S+]([O-])Cc2ccc(C(=O)c3ccccc3)cc2)[nH]c2c(Br)ccc(Cl)c2c1=O (stereo not shown) [Compound 63] , no commentary.
> 2000 nM

Return value of IC50 for input CC(=O)c1c([S+]([O-])Cc2ccc(C#N)cc2)[nH]c2c(Br)ccc(Cl)c2c1=O (stereo not shown) [Compound 73] , no commentary.
> 2000 nM

More entries:
Return value of IC50 for input CC(=O)c1c([S+]([O-])Cc2cc(F)cc(S(F)(F)(F)(F)F)c2)[nH]c2c(Br)ccc(Cl)c2c1=O (stereo not shown) [Compound 76] , no commentary.
> 2000 nM

Return value of IC50 for input COc1cccc(C[S+]([O-])c2[nH]c3c(Br)ccc(Cl)c3c(=O)c2C(C)=O)c1 (stereo not shown) [Compound 55] , no commentary.
> 2000 nM

Return value of IC50 for input CC(=O)c1c([S+]([O-])Cc2ccc(F)cc2F)[nH]c2c(Br)ccc(Cl)c2c1=O (stereo not shown) [Compound 29] , no commentary.
1670 nM

Return value of IC50 for input CC(=O)c1c([S+](C)[O-])n(Cc2ccc(F)c(Cl)c2)c2c(Br)ccc(Cl)c2c1=O (stereo not shown) [Compound 22] , no commentary.
> 2000 nM

Return value of IC50 for input CSc1c(C(C)=O)c(=O)c2c(Cl)ccc(Br)c2n1C(C)=O [Compound 18] , no commentary.
> 2000 nM

Return value of IC50 for input CC(=O)c1c(Sc2ccc(Br)cc2)[nH]c2c(Br)ccc(Cl)c2c1=O [Compound 16] , no commentary.
> 2000 nM

Return value of IC50 for input CC(=O)c1c([S+](C)[O-])[nH]c2c(Br)ccc(Cl)c2c1=O (stereo not shown) [Compound 1] , no commentary.
> 2000 nM

Return value of IC50 for input CC(=O)c1c([S+]([O-])Cc2cccnc2)[nH]c2c(Br)ccc(Cl)c2c1=O (stereo not shown) [Compound 84] , no commentary.
1000 nM
